# PROTOCOL SUMMARY: in vivo
# CONDITION SUMMARY: male, SD, rat, in vivo, tissue selectivity in the kidney, fold lower than L4, AUCtissue/ΣAUCtissue; L2 vs L4

MOLECULE: C=C(C)C1CCC(C)=CC1c1c(O)cc(CCCCC)cc1OC(=O)N(C)CC (stereo not shown)
selectivity ratio: 1.2

* * *

# PROTOCOL SUMMARY: in vivo
# CONDITION SUMMARY: male, SD, rat, in vivo, po, 15 mg/kg

COMPOUND: C=C(C)C1CCC(C)=CC1c1c(O)cc(CCCCC)cc1OC(=O)N(C)Cc1ccc(Cl)cc1 (centres unmarked) [Compound L4]
Tmax, min: 48

COMPOUND: C=C(C)C1CCC(C)=CC1c1c(O)cc(CCCCC)cc1OC(=O)N(C)CC (centres unmarked) [Compound L2]
Tmax, min: 108

COMPOUND: C=C(C)C1CCC(C)=CC1c1c(O)cc(CCCCC)cc1OC(=O)N1CCCC1 (centres unmarked) [Compound L3]
Tmax, min: 57

COMPOUND: C=C(C)[C@@H]1CCC(C)=C[C@H]1c1c(O)cc(CCCCC)cc1O [CBD, Cannabidiol, reference compound]
Tmax, min: 72

COMPOUND: C=C(C)C1CCC(C)=CC1c1c(O)cc(CCCCC)cc1OC(=O)NC (centres unmarked) [Compound L1]
Tmax, min: 13.2

* * *

# PROTOCOL SUMMARY: in vivo
# CONDITION SUMMARY: male, SD, rat, in vivo, po, Kp spleen, AUCtissue/AUCplasma, rats
READOUT NAME: Kp

COMPOUND: C=C(C)C1CCC(C)=CC1c1c(O)cc(CCCCC)cc1OC(=O)N(C)Cc1ccc(Cl)cc1 (centres unmarked)
READOUT NAME: Kp
REPORTED RESULT: 11.7

COMPOUND: C=C(C)C1CCC(C)=CC1c1c(O)cc(CCCCC)cc1OC(=O)N(C)CC (centres unmarked)
READOUT NAME: Kp
REPORTED RESULT: 2.41

* * *

# PROTOCOL SUMMARY: in vivo
# CONDITION SUMMARY: male, SD, rat, in vivo, po, 15 mg/kg
# Method: Animal experiments were conducted in accordance with the National Institutes of Health Laboratory Animal Care and Use Guidelines. Male SPF SD rats from the Animal Center of Anhui Medical University (Hefei, China) were used for the experiment. […] Quantitative analysis using Dionex Ultimate 3000 chromatography hyphenated to Q-Exactive plus Orbitrap mass spectrometer system (Thermo Fisher Scientific, Waltham, MA, USA). […]
Property: AUC(0-t); scope: individual compounds

COMPOUND: C=C(C)[C@@H]1CCC(C)=C[C@H]1c1c(O)cc(CCCCC)cc1O [CBD, Cannabidiol, reference compound]
AUC(0-t): 158 ng·h/mL
--
COMPOUND: C=C(C)C1CCC(C)=CC1c1c(O)cc(CCCCC)cc1OC(=O)NC (stereo not drawn)
AUC(0-t): 191 ng·h/mL
--
COMPOUND: C=C(C)C1CCC(C)=CC1c1c(O)cc(CCCCC)cc1OC(=O)N1CCCC1 (stereo not drawn)
AUC(0-t): 182 ng·h/mL

* * *

# PROTOCOL SUMMARY: in vivo
# CONDITION SUMMARY: male, SD, rat, in vivo, po, Kp heart, AUCtissue/AUCplasma, rats

MOLECULE: C=C(C)C1CCC(C)=CC1c1c(O)cc(CCCCC)cc1OC(=O)N(C)CC (centres unmarked) [Compound L2]
Kp: 2.63

MOLECULE: C=C(C)C1CCC(C)=CC1c1c(O)cc(CCCCC)cc1OC(=O)N(C)Cc1ccc(Cl)cc1 (centres unmarked) [Compound L4]
Kp: 15.1
